Data origin: patent US12522579B2

Biological target: UniProtKB P10636
Sequence (P10636 2-758 limits assumed): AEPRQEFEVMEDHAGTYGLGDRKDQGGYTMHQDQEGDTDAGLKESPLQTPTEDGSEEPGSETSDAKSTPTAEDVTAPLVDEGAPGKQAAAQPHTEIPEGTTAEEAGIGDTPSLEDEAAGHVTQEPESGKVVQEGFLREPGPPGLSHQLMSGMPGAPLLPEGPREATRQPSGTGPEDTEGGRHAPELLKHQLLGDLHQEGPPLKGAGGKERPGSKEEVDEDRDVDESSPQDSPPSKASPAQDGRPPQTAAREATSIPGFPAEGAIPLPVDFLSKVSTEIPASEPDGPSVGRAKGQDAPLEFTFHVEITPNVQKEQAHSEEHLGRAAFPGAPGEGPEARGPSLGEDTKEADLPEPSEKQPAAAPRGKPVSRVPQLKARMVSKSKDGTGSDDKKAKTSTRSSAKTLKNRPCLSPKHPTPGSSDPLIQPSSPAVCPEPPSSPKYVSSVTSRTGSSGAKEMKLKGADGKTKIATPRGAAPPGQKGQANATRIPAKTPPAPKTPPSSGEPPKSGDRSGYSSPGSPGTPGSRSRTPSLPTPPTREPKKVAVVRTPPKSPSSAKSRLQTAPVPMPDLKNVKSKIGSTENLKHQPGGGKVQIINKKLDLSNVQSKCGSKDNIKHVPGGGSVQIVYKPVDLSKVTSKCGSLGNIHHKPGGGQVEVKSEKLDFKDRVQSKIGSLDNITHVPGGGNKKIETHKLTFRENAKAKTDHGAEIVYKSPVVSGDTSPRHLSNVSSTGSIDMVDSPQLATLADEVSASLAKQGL
value-kind: IC50 (nM)

INSERT INTO measurements (compound, value_reported) VALUES
  ('Cc1cc(-c2ccc3cc(OC[C@H](O)CF)ccc3n2)ccn1 [THK-5471]', 192),
  ('CNc1ccc(-c2ccc3cc(OC[C@H](O)CF)ccc3n2)cn1 [THK-5351, reference compound]', 150);
